Values from PubChem BioAssay AID652054

Assign max response, negative = inhibition to each entry below.
TARGET OR TEST SYSTEM: D(3) dopamine receptor (Homo sapiens)
MEASUREMENT PROTOCOL: qHTS of D3 Dopamine Receptor Antagonist: qHTS; note: % is set by controls: 0 for no effect and ±100 for the full control effect
ASSAY CONTEXT: D3R cells, DiscoveRx beta-arrestin luminescence, antagonist mode; hits give low values
Hit rate of the full screen: of about 360,000 compounds, about 9,100 (2.5%) were called active. Not shown: some 4% with an inconclusive outcome. The sample as a whole holds a higher share of actives than the screen did.
Numbers only, in %.

Sample answers from the record:
COMPOUND: CC(C)NC(=O)Nc1ccc2c(c1)C(=O)N([C@H](C)CO)C[C@H](C)[C@@H](CN(C)Cc1ccc(C(F)(F)F)cc1)OCCCC[C@@H](C)O2
max response, negative = inhibition / %: -28.7

COMPOUND: O=C(Nc1ccc(Cl)c(C(F)(F)F)c1)C1Cc2c(-c3ccccc3Oc3ccccc3)ccnc2O1 (stereo unspecified)
max response, negative = inhibition / %: 0

COMPOUND: CO[C@@H]1CN(C)C(=O)c2cc(NC(=O)Nc3cc(F)ccc3F)ccc2OC[C@H](C)N(C(=O)c2ccccn2)C[C@@H]1C
max response, negative = inhibition / %: -21.4

COMPOUND: Cc1ccccc1-c1ccc2c(c1)O[C@@H](CN(C)Cc1ccc(C(=O)O)cc1)[C@@H](C)CN([C@H](C)CO)S2(=O)=O
max response, negative = inhibition / %: 17.1

COMPOUND: CN(C)CCNC(=O)Nc1cccc(Cl)c1Cl
max response, negative = inhibition / %: -70.3

COMPOUND: Cc1c(Cl)cccc1NC(=O)NCCCN1CCCC1=O
max response, negative = inhibition / %: -2.4

COMPOUND: O=C(Nc1ccc(Cl)cc1)c1csc([C@H]2C[C@H](O)[C@@H](CO)O2)n1
max response, negative = inhibition / %: 0

COMPOUND: O=C1Cc2ccccc2Sc2ccc(Cl)cc21
max response, negative = inhibition / %: -51

Could you tell me max response, negative = inhibition for each of these compounds? They are listed below.
1. COc1ccc(NC2CCCN(C(=O)c3ccccc3-c3ncc[nH]3)C2)cc1 (stereo unspecified)
2. CCOc1cc(/C=N/NC(=O)c2c(C)nc3ccc(Cl)cn23)ccc1O
3. O=C(CC[C@H]1O[C@@H](n2ccc(=O)[nH]c2=O)[C@H](O)[C@@H]1O)N[C@H](Cc1ccccc1)C(=O)NCc1ccco1
4. COc1cc2ccc(C(C)=O)c(O)c2cc1OC
5. S=C1Nc2cc(Cl)ccc2Sc2ccccc21
6. CCN(C(=O)Nc1cccc2ccccc12)c1ccccc1
7. COC(=O)c1ccc(Oc2nc(Nc3ccc(F)cc3)nc(N3CCCC3)n2)cc1

[A]
[-2.79, -5.49, 23.3, -9.5, 4.03, -20.4, -22.6]

Could you tell me max response, negative = inhibition for each of these compounds? They are listed below.
1. COc1nc(NC2CCCCC2)nc(N2CCCCCC2)n1
2. CC(C)Oc1cc(F)ccc1-c1cc(C(=O)Nc2cccc(Cl)c2)[nH]n1
3. O=C(c1ccc(C(F)(F)F)cc1)N1CCC(=O)N([C@H](COCc2ccccc2)Cc2ccccc2)CC1

[A]
[-62.8, 0, -26.4]
